System: Trypanosoma brucei rhodesiense (trypomastigotes forms, STIB 900 strain)
test_summary: In vitro antiprotozoal activity against T. brucei rhodesiense
Type: cell-based
conditions_used: trypomastigotes forms, STIB 900 strain, read-out: T. brucei rhodesiense IC50
assay_endpoint: IC50 (µg/mL)
Enter your answer as a number in µg/mL; do not include the unit.

Here are 5 compounds together with their reported answers.
{"compound": "CO[C@H]1C=C[C@@]23CC[N@@+]([O-])(Cc4cc5c(cc42)OCO5)[C@@H]3C1 [Buphanisine N-oxide (2), Buphanisine N-oxide]", "assay_system": "Trypanosoma brucei rhodesiense (trypomastigotes forms, STIB 900 strain)", "IC50 (µg/mL)": 55.2}
{"compound": "CO[C@@H]1C[C@H]2N3CC[C@@]2(c2cc4c(cc2C3)OCO4)[C@H]2O[C@@H]12", "assay_system": "Trypanosoma brucei rhodesiense (trypomastigotes forms, STIB 900 strain)", "IC50 (µg/mL)": 15.1}
{"compound": "CO[C@@H]1C[C@@H]2[C@@]3(CC[N@@+]2([O-])Cc2cc4c(cc23)OCO4)[C@H]2O[C@@H]12 [Augustine N-oxide (1), Augustine N-oxide]", "assay_system": "Trypanosoma brucei rhodesiense (trypomastigotes forms, STIB 900 strain)", "IC50 (µg/mL)": 58.9}
{"compound": "CN1CCC23c4cc5c(cc4C4OC(CCC12)C3O4)OCO5 (stereo not drawn)", "assay_system": "Trypanosoma brucei rhodesiense (trypomastigotes forms, STIB 900 strain)", "IC50 (µg/mL)": 19.2}
{"compound": "CO[C@H]1C=C[C@@]23CCN(Cc4cc5c(cc42)OCO5)[C@@H]3C1", "assay_system": "Trypanosoma brucei rhodesiense (trypomastigotes forms, STIB 900 strain)", "IC50 (µg/mL)": 16.5}

Ask: Query (compound): O[C@H]1C=C[C@@]23CCN(Cc4cc5c(cc42)OCO5)[C@@H]3C1 ; field requested: IC50
Result: 18.9
